Reported values of Soluble solution (solubility of non-natural cooling compound in lactic acid) for individual entries
Experiment Notes: Solubility of non-natural cooling compounds in lactic acid
Assay type: physicochemical
Experimental Conditions: warmed to about 50° C. with gentle agitation for 1 hour per step, highest tested weight % that dissolved
Only the number, expressed in wt %, is required.

For orientation, consider the following solved cases.
{"Molecule": "CSC(C)(C)C(=O)N1CCCCC1c1ncc(-c2ccc(C)cc2)[nH]1 (stereo not drawn)", "Unit Text": "wt %", "Endpoint Value": 40}
{"Molecule": "C=CC(C)(C)C(=O)N1CCCCC1c1ncc(-c2ccc(C)cc2)[nH]1 (stereo not drawn)", "Unit Text": "wt %", "Endpoint Value": 30}
{"Molecule": "CSC(C)C(=O)N1CCCCC1c1ncc(-c2ccc(C)cc2)[nH]1 (stereo not drawn)", "Unit Text": "wt %", "Endpoint Value": 50}
{"Molecule": "CCC(C)C(=O)N1CCCCC1c1ncc(-c2ccc(C)cc2)[nH]1 (stereo not drawn)", "Unit Text": "wt %", "Endpoint Value": 50}
{"Molecule": "Cc1ccc(OCC(=O)N(Cc2cccs2)c2ccn[nH]2)cc1", "Unit Text": "wt %", "Endpoint Value": 30}

**Query** Tell me the measured Soluble solution (solubility of non-natural cooling compound in lactic acid) of CC1CCC(C(C)C)C(C(=O)NCCc2ccccn2)C1 (stereo not drawn) , please.
**Result** 20
